Just for reference, patent US4668686A is where these values come from.

- assay-system: cAMP phosphodiesterase (PDE) obtained from human platelets (Homo sapiens, UniProt Q14432)
- Sequence (Q14432 whole entry): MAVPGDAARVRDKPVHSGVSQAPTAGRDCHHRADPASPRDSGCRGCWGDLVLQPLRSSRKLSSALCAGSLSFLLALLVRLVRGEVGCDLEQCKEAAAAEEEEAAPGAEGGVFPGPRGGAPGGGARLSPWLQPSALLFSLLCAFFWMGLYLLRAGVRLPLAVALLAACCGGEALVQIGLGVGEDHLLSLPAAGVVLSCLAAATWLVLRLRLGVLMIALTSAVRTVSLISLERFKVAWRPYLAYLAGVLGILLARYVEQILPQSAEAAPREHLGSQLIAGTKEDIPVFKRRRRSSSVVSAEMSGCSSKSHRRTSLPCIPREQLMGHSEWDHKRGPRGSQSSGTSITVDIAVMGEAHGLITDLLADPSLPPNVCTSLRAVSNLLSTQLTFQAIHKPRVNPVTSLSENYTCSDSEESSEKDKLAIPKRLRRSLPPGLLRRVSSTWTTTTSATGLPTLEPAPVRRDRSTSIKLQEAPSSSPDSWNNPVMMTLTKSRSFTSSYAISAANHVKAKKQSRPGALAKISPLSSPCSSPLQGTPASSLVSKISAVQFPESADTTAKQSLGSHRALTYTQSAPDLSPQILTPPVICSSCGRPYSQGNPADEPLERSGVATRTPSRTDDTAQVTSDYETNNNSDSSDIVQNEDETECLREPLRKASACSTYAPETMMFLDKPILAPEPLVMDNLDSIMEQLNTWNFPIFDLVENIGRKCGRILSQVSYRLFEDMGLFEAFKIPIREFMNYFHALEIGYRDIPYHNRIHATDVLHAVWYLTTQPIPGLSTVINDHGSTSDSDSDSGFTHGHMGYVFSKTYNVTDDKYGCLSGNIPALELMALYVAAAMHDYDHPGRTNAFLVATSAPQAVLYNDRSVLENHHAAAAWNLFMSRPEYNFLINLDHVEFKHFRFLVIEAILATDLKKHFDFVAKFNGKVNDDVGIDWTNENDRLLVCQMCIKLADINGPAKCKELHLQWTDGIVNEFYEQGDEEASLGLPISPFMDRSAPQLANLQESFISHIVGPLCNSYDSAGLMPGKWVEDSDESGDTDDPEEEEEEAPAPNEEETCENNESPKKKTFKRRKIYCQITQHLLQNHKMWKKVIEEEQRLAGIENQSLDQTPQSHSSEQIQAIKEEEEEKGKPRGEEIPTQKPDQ
Below is a list of entries, each paired with its recorded IC50 value.

molecule: Cc1ccc2c(c1C)CC1NC(=O)NC1=N2 (stereo not shown) [Example 35]
unit-descriptor: nM
IC50: 30
//
molecule: O=c1[nH]c2cc3ccc(C(F)(F)F)cc3nc2[nH]1 [Example 25]
unit-descriptor: nM
IC50: 300
//
molecule: Cc1cccc2c1CC1NC(=O)NC1=N2 (stereo not shown) [Example 20-3]
unit-descriptor: nM
IC50: 100
//
molecule: O=c1[nH]c2cc3cc(Br)ccc3nc2[nH]1 [Example 22]
unit-descriptor: nM
IC50: 100
